System: Renin (Homo sapiens) | Read-out: IC50
Sequence (P00797 whole entry): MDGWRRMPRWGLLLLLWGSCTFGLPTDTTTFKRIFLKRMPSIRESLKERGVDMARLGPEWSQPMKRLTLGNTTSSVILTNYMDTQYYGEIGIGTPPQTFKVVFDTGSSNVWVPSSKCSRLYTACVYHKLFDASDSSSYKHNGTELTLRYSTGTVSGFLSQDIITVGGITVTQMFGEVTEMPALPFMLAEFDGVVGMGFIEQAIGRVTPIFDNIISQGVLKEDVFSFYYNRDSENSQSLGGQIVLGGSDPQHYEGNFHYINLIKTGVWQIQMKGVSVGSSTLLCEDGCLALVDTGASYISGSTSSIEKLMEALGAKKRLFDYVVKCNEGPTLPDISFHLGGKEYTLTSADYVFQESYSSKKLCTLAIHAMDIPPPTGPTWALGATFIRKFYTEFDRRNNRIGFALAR
Please give a number only; it is taken to be in nM.

Some solved cases for reference:
| structureNotation | target | readoutNumber |
| --- | --- | --- |
| C=C(C[C@H](O)[C@H](CC1CCCCC1)NC(=O)[C@H](Cc1c[nH]cn1)NC(=O)[C@H](Cc1ccccc1)NC(=O)OCC)C(=O)NCCC(C)C | Renin (Homo sapiens) | 3 |
| C=C(C[C@H](O)[C@H](CC(C)C)NC(=O)[C@H](C)NC(=O)[C@H](Cc1ccccc1)NC(=O)OC(C)(C)C)C(=O)NCCC(C)C | Renin (Homo sapiens) | 200 |
| C=C(C[C@H](O)[C@H](CC1CCCCC1)NC(=O)[C@H](Cc1c[nH]cn1)NC(=O)[C@H](Cc1ccccc1)NC(=O)OC(C)(C)C)C(=O)NCCC(C)C | Renin (Homo sapiens) | 1.5 |

Query block: Quick one: IC50 of C=C(C[C@H](O)[C@H](CC1CCCCC1)NC(=O)[C@H](C)NC(=O)[C@H](Cc1ccccc1)NC(=O)OC(C)(C)C)C(=O)NCCC(C)C ?
Result block: 10

Query block: Quick one: IC50 of C=C(C[C@H](O)[C@H](CC1CCCCC1)NC(=O)[C@H](Cc1c[nH]cn1)NC(=O)[C@H](Cc1ccccc1)NC(=O)OC(C)(C)C)C(=O)NCC(C)(C)CN(C)C ?
Result block: 5

Query block: Quick one: IC50 of C=C(C[C@H](O)[C@H](CC1CCCCC1)NC(=O)[C@H](CC(C)C)NC(=O)[C@H](Cc1ccccc1)NC(=O)OC(C)(C)C)C(=O)NCCC(C)C ?
Result block: 4
